system: MS2 coat protein; assay: apparent KD of MS2 coat protein; designed switch direction (-1 OFF switch, 1 ON switch): -1; higher = weaker reporter binding; details: input ligand: FMN 200 uM
ASSAY READOUT: apparent KD of MS2 coat protein (nM)
Dear colleague, please return just the value in nM, with no unit written.

Query: apparent KD of MS2 coat protein; subject: GAGAAAUGUGUUAGGAUAUCCCGCUAAAGCAGAUAGGAGAAGGAACAUGAGGAUCACCCAUGUAGGGAGGGCCA [Eternabot (Original) Solution 17] (Eterna round: R97, puzzle: Brourd's mod of Exclusion 4)
Response: 192

Query: Request the reported apparent KD of MS2 coat protein associated with CUUCACCCACCAGAGCUCACCCACAUACCUACUCAGGUGACAUGAGGAUCACCCAUGUUUUUUGCCCGUCUUAUCUU [Vexebedi] (Eterna round: R96, puzzle: Sensor v3, turn-off variant 2)
Response: 34.4

Query: Tell me the measured apparent KD of MS2 coat protein of UUUAGUUCAGGAUAUGAUGAAAUUAACAUGAGGAUCACCCAUGUAGAUCCUGAAUUAACAUCAGAAGGGAACAUUU [JL-ex5-4.44 Brourd mod] (Eterna round: R97, puzzle: Exclusion 5) , please.
Response: 57.8

Query: # input sequence: UGAGUGCUGCGAGGAUAUACAUGAGGAUCACCCAUGUUUACCUGUGAGGCUUUGCCUCACAGGUUGUAGAAGGCGCAGUACUCU [JL ENG2 1.15] (Eterna round: R96, puzzle: Exclusion NG 2) ; wanted: its apparent KD of MS2 coat protein
Response: 10.2

Query: Name the recorded apparent KD of MS2 coat protein for GCUUGUAGAGGAUAUACAAGGGCCCGAGCGGCGAGAGCCGCACAUGAGGAUCACCCAUGUAGAAGGCUACUAUA [JL-ex2-4.21 ViennaUCT mod] (Eterna round: R97, puzzle: Exclusion 2) .
Response: 201

* * *

Assign apparent KD of MS2 coat protein to each entry below.
tested on: MS2 coat protein; assay: apparent KD of MS2 coat protein; designed switch direction (-1 OFF switch, 1 ON switch): -1; higher = weaker reporter binding; conditions: Eterna round: R95; input ligand: none
All answers are understood in nM, so give the number only.

Query: Value wanted: apparent KD of MS2 coat protein (MS2 coat protein) of entry GUGUAACAAGGAUAUACAUGAGGAUCACCCAUGUGAAUAAGAUUGAAUAAGAUAAAGUGUAGAAGGUGUAGUGU [Excluse me!!! 9 - Jieux - Exclusion 3] (puzzle: Exclusion 3)
Response: 37.1

Query: Give MS2 coat protein apparent KD of MS2 coat protein for CUGGUCCGAGGAUAUAUGAUGUGAAACAUGAGGAUCACCCAUGUAAUAUUAUGGAAGUAAAUAGAAGGCGGACUAG [Mat - Exclusion 5 - JL mod - D34] (puzzle: Exclusion 5)
Response: 37

Query: Reported apparent KD of MS2 coat protein for MS2 coat protein, given GAGGUGUUAGGAUAUCGGAGAUGGAGAAGAACGGGAAGAGCCGAGAAGGAACAUGAGGAUCACCCAUGUAGGUG [JR_Exclu4_Sub030] (puzzle: Exclusion 4) ?
Response: 696

Query: Look up apparent KD of MS2 coat protein with MS2 coat protein for this sequence: AAGAGGUCAGGAUAUACAGGAAGAGAGAGAAGUAGAGGGUAACAUGAGGAUCACCCAUGUAGAAGGGACUAAGA [JR_Exclu2_Sub071] (puzzle: Exclusion 2)
Response: 63.1

Query: Notebook entry, MS2 coat protein assay: apparent KD of MS2 coat protein of UCAUGUUUAGAGGAUAUGAUUACUCUAGAGUGAUCAGAAGGCUAGACAUGAGGAUCACCCAUGUCAUAACAUGA [Exclusion 6 - B - 16:a] (puzzle: Exclusion 6) = ?
Response: 127

Query: For MS2 coat protein, provide apparent KD of MS2 coat protein of CGGUACUGAGGAUAUACAUGAGGAUCACCCAUGUGUACUAGCUAGCGUACUGGCAUUAGUAGAAGGCGGUGCUG [JL-ex3-3.20 Brourd mod] (puzzle: Exclusion 3) please.
Response: 13.2

Query: Find apparent KD of MS2 coat protein (MS2 coat protein) for the entry AUAUUAACAUAGGAUAUCGAAUUUAUCAUUUAACGAGAAGGAUGAACAUGAGGAUCACCCAUGUGGUAUCAUGG [Mat - Exclusion 6 - JL Mod - D1] (puzzle: Exclusion 6)
Response: 249

Query: Write down the reported apparent KD of MS2 coat protein of AAGAAACAUGAGGAUCACCCAUGUGAGGAUAUGAGCAAGAAAAGAAAAGAAAGAAGAUUCAGAAGGCACAAAGG [salish99-ex1_r3_059] (puzzle: Exclusion 1) , test system: MS2 coat protein.
Response: 59.3

Query: For the record AGUACUAACACGAAAGUGUUAGUACAAUAAGCUUGUAUUACAUGAGGAUCACCCAUGUCCUCAUAAGCUCGUCUUAU [Mat - Sensor v3 - Turn-off var 2 - D46] (puzzle: Sensor v3, turn-off variant 2) , what value of apparent KD of MS2 coat protein is listed for MS2 coat protein?
Response: 881

Query: Give MS2 coat protein apparent KD of MS2 coat protein for AGUACGAUGCGUGCUGACAUGCGUCGUGCAGCAGGUGAUACAUGAGGAUCACCCAUGUCCUCAUUUGCUCGUCUUGA [Mat - Sensor v3 - Turn-off var 2 - D19] (puzzle: Sensor v3, turn-off variant 2)
Response: 28.4

* * *

tested on: K4 kissing-loop RNA reporter; assay: apparent KD of K4 kissing-loop reporter; higher = weaker reporter binding; conditions: Eterna round: R107; input ligand: arginine 13.2 mM;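 note: bound reporter read as fluorescence of individual clusters on recovered sequencing chips by microscopy, with normalized cluster intensities fitted with a binding model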
ASSAY READOUT: apparent KD of K4 kissing-loop reporter (nM)
Report as a plain number; the unit nM is understood.

Query: Fill in: apparent KD of K4 kissing-loop reporter of UUGCAAAAGUCGGCCGCCACUCCGGGCCCUAUAAAUGGGCGCAGUGAUGUUGCGGCUAGGCCUCUGAGGACCGGGACUUUGUAGC [Aenonlebe] is ___
Response: 103

Query: Recorded apparent KD of K4 kissing-loop reporter for GUAUCGCUAGGAGGAUAUUUCAAAUAAUAAAUAAAUGGUUAUACGGAGUGAUGUUCCGAUUUACGGAAAGAAGGCCUAGUGAUAC [FMN B 3] , please?
Response: 144

Query: Return reported apparent KD of K4 kissing-loop reporter; argument: ACAUGAGUGAUGUUCAUGUGGAGCAGGGUACGAGGACCGGUACGGCCGCCACUCGAGAGUUAUGACGAGUUAAUGGCAACGAUGU [KL-Tryp-A8 #analogue]
Response: 90.2

Query: Please give the measured apparent KD of K4 kissing-loop reporter for this sequence: CCAUUCUGUUACGAUACCAGUCAAAGAUAUUUGAUCAAUACCCUCGCCGAGUGAUGUUCGGACCCUUGGCAGCGUCUGGGACAGG [fdxxvmullin]
Response: 437

Query: Given the sequence `UGAUAGGACAGAAGGAGCGGUAGUGAUGUUGCCAAAAGGUUAAGGUGUCAAAAGACACCCUACCAGGUAGGUCGCUGUCCUAUCU` , what is its reported apparent KD of K4 kissing-loop reporter?
Response: 207

Query: What does the data say about its apparent KD of K4 kissing-loop reporter? Entry: AAGCAGUCAGAGAGUGAUGUUCUCAAAUAACGAGGACCGGUACGGCCGCCACUCGAAGACUGCAAGUCCUACGAAAAGUAGGACA [Omei inspired 9]
Response: 59.5

Query: What apparent KD of K4 kissing-loop reporter value was documented for this sequence, GGGAGGAACUGAGGAUAUUCGAAGAAAUAUAGUGAUGUUAUGUAAGGAGGAGGAGGGAGGGAGGAAGGAGAAGGCAGAAGAGGAG [ExFMNB.A] ?
Response: 415

Query: Form field: reported apparent KD of K4 kissing-loop reporter of CUAUGGGUGGACGAUACCAGCUAGUGAUGUUAGCGGGUCGAGCACGCGCAUCGCCGUGGUAGCCCUUGGCAGCGUACAGAUGUUU [theeternabot_exclusion_KL_Theo_B_5]
Response: 131

Query: Reported apparent KD of K4 kissing-loop reporter, sequence UGAUACCAGACUGAUACCAGCCACAGAGUCAAAGACUCUGAAAAGGAAACCAGUGAUGUUGGCCCUUGGCAGCAGUCUGGUAUCU [TheoBX 15 #SwitchBubble #StaticStem] : ____
Response: 176

Query: Which value of apparent KD of K4 kissing-loop reporter has been reported for GGAUAGGACAGAGGAUAUCUCUAAAGAGGCAAGAAAACUUGUCUCAGAGAUGACUCAGUGAUGUUGAGAGAAGGCUGUCCUAUCG [FmnBX 7 - #SwitchBubble #StaticStem] in the records?
Response: 161

Query: Look up apparent KD of K4 kissing-loop reporter: CGAGUGAUGUUCGUUUUUUACUCUGUUUGACAGGAUAUGCGGAAACGCAGAAGGGUCACCUUUGAGUUAGACGGAGUUAUUUUUU [Ex FMN A 21]
Response: 287

Query: For the sequence shown here, GUACCGCGUGCGGCCGCCACUACAUCAAUUACCUAAGCCUAGUGAUGUUGGGUUUUUGCUACAGGUAGGACCGGGCAGAUGUAUG [theeternabot_sameState_KL_Trp_B_38] , give the reported apparent KD of K4 kissing-loop reporter.
Response: 225

Query: Given the entry ACCUACGAUCACAAAAGUGAUUGUAGGAUCUAGGAUAUGCUGAAGAGCAGAAGGAGAGUGAUGUUCUCAUCUCACGAAAGUGAGA [whbob_Ex_FMNA__2th189] , report its measured apparent KD of K4 kissing-loop reporter.
Response: 189

Query: apparent KD of K4 kissing-loop reporter lookup needed for AUAUUAACUCAGUGAUGUUGAGUUGACGAAGGAGCGCUAGAGAUAGCAGGUAGGUCGCGUCAAUUUAAUGGAGACUAGCUUUACG [Arg A Ex t4] , thanks.
Response: 297

Query: Which apparent KD of K4 kissing-loop reporter is listed for CCUAUCUCAUACGAUACCAGUGAUUAACCAGUGAUGUUGGAAUAACCAAGGAAUAUUUAUCACCCUUGGCAGCGUAUGGGAUAGG [Ex Theophylline B K4 28] ?
Response: 54.4

Query: What measured apparent KD of K4 kissing-loop reporter goes with CGCAGUGAUGUUGCUAUUAUUCUUGAUUAACGAGGACCGGUACGGCCGCCACUCGAUUUCUAUCUAAUUUAGUGUUAUGUUGAUU [JR_ExcTryptoA_Sub007] ?
Response: 423

Query: May I ask what apparent KD of K4 kissing-loop reporter has been recorded for UGAUACCAGACUGAUACCAGCCAGUGAUGUUGGCUAAGCCGAAGAGGUGUCAUAGACACCGGCCCUUGGCAGCAGUCUGGUAUCU [#07 K4 Theophylline B Exclusion] ?
Response: 110

Query: Looking for the measured apparent KD of K4 kissing-loop reporter of UUGGAUUGAUGAGAGUUGAUUUGGUAGGAAGGAGCGGCCGAAAGGCCAGGUAGGUCGCCUAUUGACAGUGAUGUUGUUAUAUGGU [#16] , can you help?
Response: 228

Query: Fill in: apparent KD of K4 kissing-loop reporter of UCACUACACUGAAGGAGCGUGAGGAGACUAGUGAUGUUGGUCAGAUUCUAUGAUCGUAACUCACAGGUAGGUCGCAGUGUAGUGU [Arg B SS t7] is ___
Response: 341

Query: // lookup apparent KD of K4 kissing-loop reporter for GGACGACAGGCGGCCGCCACUCAAAGCAGCCAGCGAGUGAUGUUCGUGGCGGAGUGAUGUUCCUAGAGGACCGGGUCUGCAGUUC [Same State Tryptophan B GF 18]
Response: 390

Query: Recorded apparent KD of K4 kissing-loop reporter of UAACGGCCCAGUGAUGUUGGGUGGAGGCGGCGAGGACCGGUACGGCCGCCACUCGGCGCACAGGCGGAGUGAUGUUGCGCGUAAA [Same State Tryptophan A GF 13] , please.
Response: 164

Query: # apparent KD of K4 kissing-loop reporter lookup, item GGUAGCGCUAGAGAUACCAGUCAUAUCGCUCUGGAGUGAUGUUCCGGAACGUGCGGAGAAGACCCUUGGCAGCUCAUGACGGUGU [Exclusion Theophylline B GF 4]
Response: 194

Query: Look up apparent KD of K4 kissing-loop reporter for this sequence: CUCGAGUGAUGUUCGUUUAUUUAUACAGAUACCAGUGAAUUUUAACACCCUUGGCAGCUGGUUGUAUCUUUGUUUUUUACACAAG [JR_Nu_ExcTheophyA_Sub024]
Response: 297
